Target: tau construct K19 (Homo sapiens, UniProt P10636)
Sequence (P10636 with tags, fused parts or gaps isoform P10636-2 limits assumed): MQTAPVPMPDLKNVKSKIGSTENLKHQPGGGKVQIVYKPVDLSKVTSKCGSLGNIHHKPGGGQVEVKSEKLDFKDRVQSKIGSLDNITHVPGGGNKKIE
Test: Thioflavine S (ThS) assay for aggregation of tau
Type: biochemical
Details: 10 μM tau construct K19, 2.5 μM heparin, over night at 37° C., ThS fluorescence; read-out: ID50 (the source's name)
Hi! Just check whether IC50 is below 40 µM. Below gives 1, equal or above gives -1.

1. O=C(NNc1nc(-c2ccc([N+](=O)[O-])cc2)cs1)c1cccnc1 :: 1
2. Cc1sc(NNC(=O)c2ccc(Cl)cc2)nc1-c1cccc([N+](=O)[O-])c1 :: 1
3. [N-]=[N+]=Nc1ccc(-c2csc(NNC(=O)c3ccc(F)cc3)n2)cc1 :: 1
4. Cc1sc(NNC(=O)c2ccc(F)cc2)nc1-c1ccccc1 :: -1
5. O=C(NNc1nc(-c2ccc(Br)cc2)cs1)Nc1ccccc1 :: -1
6. O=C(NNc1nc(-c2ccc(Br)cc2)cs1)c1ccc(-c2ccccc2)cc1 :: -1
7. O=C(NNc1nc(-c2ccccc2)cs1)c1ccc(-c2ccccc2)cc1 :: -1
8. O=C(NNc1nc(-c2ccc([N+](=O)[O-])cc2)cs1)c1ccc(-c2ccccc2)cc1 :: 1
9. O=C(NNc1nc(-c2cc3ccccc3oc2=O)cs1)c1ccc2c(c1)OCO2 :: -1
10. O=C(NNc1nc(-c2ccccc2)cs1)c1ccc(F)cc1 [Comp. 34] :: -1
11. O=C(NNc1nc(-c2ccccc2)cs1)c1cccnc1 :: 1
12. COc1ccc(C(=O)NNc2nc(C3C4CC5CC(C4)CC3C5)cs2)cc1 (centres unmarked) :: -1
13. N#Cc1ccc(-c2csc(NNC(=O)c3cccc(F)c3)n2)cc1 :: 1
14. O=C(NNc1nc(-c2ccc(N3CCCC3)cc2)cs1)c1ccc(F)nc1 :: -1
15. CN(Nc1nc(-c2ccc([N+](=O)[O-])cc2)cs1)C(=O)c1ccc(-c2ccccc2)cc1 :: -1
16. O=C(NNc1nc(-c2ccc(F)cc2)cs1)c1ccc(Cl)cc1 :: -1
17. O=C(NNc1nc(-c2ccccc2)cs1)c1ccc2ccccc2c1 :: -1
18. O=C(NNc1nc(-c2ccccc2)cs1)c1ccc(Cl)cc1 :: -1
19. CC(C)(C)c1csc(NNC(=O)c2ccc(Cl)cc2)n1 :: -1
20. O=C(NNc1nc(-c2ccc(Cl)cc2)cs1)c1ccccc1 :: -1

====

Target: UniProtKB P10636
Experiment: Thioflavine S (ThS) assay for aggregation of tau
Assay type: biochemical
Settings: 10 μM tau construct K19, 2.5 μM heparin, ThS fluorescence; read-out: DC50
The following molecules are shown together with reported DC50 values.
RECORDED_ENDPOINT: DC50 (µM)

1) O=C(NNc1nc(-c2ccc([N+](=O)[O-])cc2)cs1)c1ccco1 :: 0.8
2) O=C(NNc1nc(-c2ccc([N+](=O)[O-])cc2)cs1)Nc1ccccc1 :: 33.5
3) O=C(NNc1nc(-c2ccc([N+](=O)[O-])cc2)cs1)c1ccc(-c2ccccc2)cc1 :: 1.2
4) O=C(NNc1nc(-c2ccc(N3CCCC3)cc2)cs1)c1ccc2ccccc2c1 :: 1.5
5) O=C(NNc1nc(-c2ccc(N3CCCC3)cc2)cs1)c1ccc(F)nc1 :: 44.6
6) Cc1nc(NNC(=O)c2ccc3[nH]cnc3c2)sc1-c1ccc(Br)cc1 :: 38.1
7) CN(C(=O)c1ccc(-c2ccccc2)cc1)N(C)c1nc(-c2ccc([N+](=O)[O-])cc2)cs1 :: 17.7
8) O=C(NNc1nc(-c2ccc([N+](=O)[O-])cc2)cs1)c1cccnc1 :: 0.7
9) O=C(NNc1nc(-c2cc3ccccc3oc2=O)cs1)c1ccc2ccccc2c1 :: 88
10) O=C(NNc1nc(-c2ccc(Br)cc2)cs1)c1cccnc1 :: 0.5
11) N#Cc1ccc(-c2csc(NNC(=O)c3cccc(F)c3)n2)cc1 :: 28.7
12) Cc1sc(NNC(=O)c2ccc(-c3ccccc3)cc2)nc1-c1ccc([N+](=O)[O-])cc1 :: 13.6

====

The following compounds are shown together with reported log10(IC50) values.
Target: UniProtKB P10636
Experiment: Thioflavine S (ThS) assay for aggregation of tau
Format: biochemical
Conditions: 10 μM tau construct K19, 2.5 μM heparin, over night at 37° C., ThS fluorescence; read-out: ID50 (the source's name)
RECORDED_ENDPOINT: log10(IC50) (log10 of the value in µM)

1. O=C(NNc1nc(-c2ccc([N+](=O)[O-])cc2)cs1)c1ccc2c(c1)OCO2 [Comp. 13] :: 0.59
2. COc1cccc(-c2csc(NNC(=O)c3ccc(Cl)cc3)n2)c1 [Comp. 27] :: 1.77
3. O=C(NNc1nc(-c2ccc([N+](=O)[O-])cc2)cs1)c1ccc2ccccc2c1 [Comp. 20] :: 1.13
4. O=C(NNc1nc(-c2ccc(Cl)cc2)cs1)C1CCCCC1 [Comp. 68] :: 1.84
5. O=C(NNc1nc(-c2cc3ccccc3o2)cs1)c1ccc(Cl)cc1 [Comp. 26] :: 1.67
6. O=C(NNc1nc(-c2ccc(Br)cc2)cs1)c1ccncc1 [Comp. 21] :: 1.26
7. O=C(NNc1nc(-c2ccc(-c3ccccc3)cc2)cs1)c1ccccc1F [Comp. 74] :: 1.31
8. Cc1sc(NNC(=O)c2ccc(-c3ccccc3)cc2)nc1-c1ccc([N+](=O)[O-])cc1 [Comp. 61] :: 0.99
9. O=C(NNc1nc(-c2ccc([N+](=O)[O-])cc2)cs1)c1ccc2[nH]cnc2c1 [Comp. 8] :: 0.20
10. COc1cc(-c2csc(NNC(=O)c3ccc(C(F)(F)F)cc3)n2)cc(OC)c1O [Comp. 51] :: 2.28
11. O=C(NNc1nc(-c2ccc([N+](=O)[O-])cc2)cs1)Nc1ccccc1 [Comp. 6] :: 1.03
12. O=C(NNc1nc(-c2ccc(N3CCCC3)cc2)cs1)c1ccc2ccccc2c1 [Comp. 16] :: 0.76
13. COc1ccc(-c2csc(NNC(=O)c3ccccc3F)n2)cc1 [Comp. 70] :: 1.31
14. O=C(NNc1nc(-c2cc3ccccc3oc2=O)cs1)c1cccnc1 [Comp. 2] :: 1.37
15. O=C(NNc1nc(-c2ccc([N+](=O)[O-])cc2)cs1)c1ccco1 [Comp. 17] :: 0.80

====

The following molecules are shown together with reported pIC50 values.
Biological target: tau construct K19 (Homo sapiens, UniProt P10636)
Assay: Thioflavine S (ThS) assay for aggregation of tau
Type: biochemical
Conditions: 10 μM tau construct K19, 2.5 μM heparin, over night at 37° C., ThS fluorescence; read-out: ID50 (the source's name)
pIC50: −log10 of the molar value.
RECORDED_ENDPOINT: pIC50

1. O=C(NNc1nc(-c2cccc([N+](=O)[O-])c2)cs1)c1ccccc1Cl [Comp. 25] :: 4.45
2. COc1cccc(-c2csc(NNC(=O)c3cccs3)n2)c1 [Comp. 23] :: 4.55
3. O=C(NNc1nc(-c2ccc(N3CCCC3)cc2)cs1)c1ccc(-c2ccccc2)cc1 [Comp. 9] :: 5.72
4. Cc1nc(NNC(=O)c2ccc(F)cc2)sc1-c1ccc(Br)cc1 [Comp. 63] :: 4.87

====

Biological target: tau construct K19 (Homo sapiens, UniProt P10636)
Test: Thioflavine S (ThS) assay for aggregation of tau
Format: biochemical
Conditions: 10 μM tau construct K19, 2.5 μM heparin, ThS fluorescence
RECORDED_ENDPOINT: DC50

1. O=C(NNc1nc(-c2ccccc2Br)cs1)c1cc2ccccc2[nH]1 [Comp. 60] :: > 200 µM
2. O=C(NNc1nc(C2C3CC4CC(C3)CC2C4)cs1)c1cc2ccccc2[nH]1 (stereo not shown) [Comp. 54] :: > 200 µM
3. COc1cc(-c2csc(NNC(=O)c3cc4ccccc4[nH]3)n2)cc(OC)c1O [Comp. 53] :: > 200 µM
4. O=C(NNc1nc2c(s1)Cc1ccccc1-2)c1cc2ccccc2[nH]1 [Comp. 52] :: 89.1 µM

====

Biological target: tau construct K19 (Homo sapiens, UniProt P10636)
Test: Thioflavine S (ThS) assay for aggregation of tau
Format: biochemical
Details: 10 μM tau construct K19, 2.5 μM heparin, ThS fluorescence
RECORDED_ENDPOINT: DC50 (µM)

1) O=C(NNc1nc(-c2ccc(Cl)cc2)cs1)c1cc2ccccc2[nH]1 :: 105
2) O=C(NNc1nc(-c2ccc3ccccc3c2)cs1)c1cc2ccccc2[nH]1 :: 138

====

Target: tau construct K19 (Homo sapiens, UniProt P10636)
Test: Thioflavine S (ThS) assay for aggregation of tau
Type: biochemical
pIC50: −log10 of the molar value.
The following compounds are shown together with reported pIC50 values.
RECORDED_ENDPOINT: pIC50

1) O=C(NNc1nc2c(s1)Cc1ccccc1-2)c1cc2ccccc2[nH]1 :: 4.31
2) O=C(NNc1nc(-c2ccc(-c3ccccc3)cc2)cs1)c1cc2ccccc2[nH]1 :: 4.00
3) COc1cc(-c2csc(NNC(=O)c3cc4ccccc4[nH]3)n2)cc(OC)c1O :: 3.77
